Data origin, for the record: patent US11236129B2

Molecular target: IL-17RA/IL17RC dimerization induced by IL-17A (Homo sapiens, UniProt Q16552)
Sequence (Q16552 24-155): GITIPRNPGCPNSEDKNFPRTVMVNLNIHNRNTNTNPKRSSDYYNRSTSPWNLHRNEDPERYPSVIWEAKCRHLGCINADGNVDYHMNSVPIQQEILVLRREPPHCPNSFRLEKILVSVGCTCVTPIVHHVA
Test: IL-17RA/IL17RC dimerization assay in response to IL-17A (PathHunter Cytokine Receptor Assay)
Assay type: cell-based
Conditions: IL-17A at EC80; read-out: IC50 in IL-17RA/IL7RC dimerization assay
Procedure: The peptides of Table 7 were tested for their ability to inhibit the binding of IL-17A to its receptor and the subsequent interaction of IL-17RA and IL17RC. […] In the PathHunter® Cytokine Receptor Assay, one cytokine receptor chain is tagged with a small peptide epitope ProLink (PK) and the other chain is tagged with Enzyme Acceptor (EA). […] This interaction generates an active unit of b-galactosidase, which is detected using a chemiluminescent substrate. […]
Residues, ends and D or L forms follow the SMILES beside them.
assay.endpoint: IC50

Which value of IC50 has been reported for CC[C@H](C)[C@H](NC(C)=O)C(=O)N[C@@H](Cc1c[nH]cn1)C(=O)N[C@H](C(=O)N[C@H](C(=O)N[C@H](C(=O)N1CCC[C@H]1C(=O)N[C@@H](C)C(=O)N[C@@H](CC(=O)O)C(=O)N[C@@H](CC(C)C)C(=O)N[C@@H](Cc1c[nH]c2ccccc12)C(=O)N[C@@H](CC(=O)O)C(=O)N[C@@H](Cc1c[nH]c2ccccc12)C(=O)N[C@H](C(=O)N[C@@H](CCCNC(=N)N)C(=O)N[C@@H](CCCCN)C(N)=O)[C@@H](C)CC)[C@@H](C)CC)[C@@H](C)O)C(C)C [SEQ ID NO: 9] (Ac-IHVTIPADLWDWIRK-NH2) in the records? < 300 nM
